# Tested Target: DERAm (monomeric variant of ecDERA) (Escherichia coli, UniProt P0A6L0, K58E/Y96W)
# Sequence (P0A6L0 1-259 K58E/Y96W): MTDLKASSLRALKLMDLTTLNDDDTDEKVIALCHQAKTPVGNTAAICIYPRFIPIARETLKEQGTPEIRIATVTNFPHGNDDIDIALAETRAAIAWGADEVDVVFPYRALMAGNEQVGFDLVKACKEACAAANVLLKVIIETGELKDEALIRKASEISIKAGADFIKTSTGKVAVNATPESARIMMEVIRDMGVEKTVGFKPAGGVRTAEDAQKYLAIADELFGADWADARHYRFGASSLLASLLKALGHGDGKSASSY
# Assay Text: 1H-15N HSQC NMR titration, chemical shift perturbation
Measured Quantity: pKd
Entry type: numeric. Quantity: pKd, the -log10 of concentration in molar units.

// query Find the recorded pKd belonging to O=P(O)(O)O [potassium phosphate] and report it.
// result 1.73
